Test system: MDA-MB-231
Assay: NCI tumour cell line growth inhibition, 48 h
The source made the active and inactive calls. Cut-off read from the data, not from the text of the source: active = GI50 up to about 1.1 µM and inactive = higher. Where a SMILES comes first, the peptide text is derived from it. The star is where a group is joined. Fmoc = O=C(OCC1c2ccccc2-c2ccccc21)*; OtBu = CC(C)(C)O*
Classes used: active, inactive

COMPOUND	TEST SYSTEM	ANSWER LABEL
CCCCCc1cc2cc3c(c(O)c2c(=O)[nH]1)C1(CC3)C(=O)c2c(O)c3c(c(O)c2C1=O)C(=O)C(OC)=CC3=O (centres undefined)	MDA-MB-231	active
CC(C)C(NC(=O)OCC1c2ccccc2-c2ccccc21)C(=O)NC(CCC(=O)OC(C)(C)C)C(=O)OC(C)(C)C (centres undefined) (Fmoc-Val-Glu(OtBu)-OtBu; configuration not given here)	MDA-MB-231	inactive
CC1=NN(c2cccc(Cl)c2)C2(C1=Cc1ccccc1)C(Cl)C(=O)N2c1nc2ccccc2s1 (centres undefined)	MDA-MB-231	inactive
CC(C)Cc1cnc(CC(C)C)c(=O)[nH]1	MDA-MB-231	inactive
